B1: MIA2 (parent)
chain: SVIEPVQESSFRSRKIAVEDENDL

Variants of: B1
PROTOCOL_NOTES: protein stability index of a GFP-peptide fusion (GPS, HEK-293T) (PSI 1-6); higher = more stable;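 also: lentivirally expressed fusions sorted by FACS into six bins by GFP to DsRed ratio, PSI derived from sequencing read proportions per bin multiplied by bin number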
CONDITION_CONTEXT: c terminus: a fixed tail appended
ATTRIBUTE_MEASURED: protein stability index
Give the figure by itself; no unit, no explanation.

Please review the following examples before continuing.
I3K = 4.92
E8H = 5.02
D23R = 5.07
R12I = 5.12

Given the variant S9W , what is its reported protein stability index? 4.86

# protein stability index lookup, item F11S 5.26

Record request: protein stability index value, item I16W 4.66

Entry S9L : reported protein stability index = ? 4.48

Name the recorded protein stability index for I16V . 5.41

Which measured protein stability index value corresponds to P5E ? 4.79

Quick check: protein stability index of E19K ? 5.35

Please give the measured protein stability index for this variant: S10R 5.02

Quick check: protein stability index of R12G ? 5.53

What measured protein stability index goes with D23N ? 5.1

Which protein stability index reading was recorded for the variant S1Y ? 3.12

Report protein stability index for E19H please. 4.56
